test.target: T1, RSV F glycoprotein (NUF4) (respiratory syncytial virus)
T1 chain 1: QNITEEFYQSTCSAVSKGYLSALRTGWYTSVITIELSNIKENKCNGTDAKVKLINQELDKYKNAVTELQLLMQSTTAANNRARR
T1 chain 2: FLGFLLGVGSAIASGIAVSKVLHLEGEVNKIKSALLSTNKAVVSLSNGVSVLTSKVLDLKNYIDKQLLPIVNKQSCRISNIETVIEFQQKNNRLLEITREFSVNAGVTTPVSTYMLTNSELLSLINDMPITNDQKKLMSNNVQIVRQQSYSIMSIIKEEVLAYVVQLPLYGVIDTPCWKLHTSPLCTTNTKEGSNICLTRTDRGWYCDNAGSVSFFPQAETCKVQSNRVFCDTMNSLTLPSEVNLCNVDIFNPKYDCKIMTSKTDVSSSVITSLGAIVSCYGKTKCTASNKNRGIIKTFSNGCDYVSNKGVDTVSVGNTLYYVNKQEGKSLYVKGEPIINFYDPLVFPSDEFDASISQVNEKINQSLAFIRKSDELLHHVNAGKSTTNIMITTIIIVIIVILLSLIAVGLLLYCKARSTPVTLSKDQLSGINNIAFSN
method.notes: SPR (BIAcore), mAb vs NUF4 (1:1)
readout.type: koff

binder="A17d4(1) IgG (antibody, V domains shown) VH: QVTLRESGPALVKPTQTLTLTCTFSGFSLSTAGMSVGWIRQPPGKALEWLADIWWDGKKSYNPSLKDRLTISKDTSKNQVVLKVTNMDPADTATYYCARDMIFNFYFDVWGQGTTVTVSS VL: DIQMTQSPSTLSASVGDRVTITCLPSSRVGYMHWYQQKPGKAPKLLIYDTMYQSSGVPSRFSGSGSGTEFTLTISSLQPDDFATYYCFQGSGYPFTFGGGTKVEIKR" readout_type=koff observed="0.000362 s⁻¹"
binder="A8c7 IgG (antibody, V domains shown) VH: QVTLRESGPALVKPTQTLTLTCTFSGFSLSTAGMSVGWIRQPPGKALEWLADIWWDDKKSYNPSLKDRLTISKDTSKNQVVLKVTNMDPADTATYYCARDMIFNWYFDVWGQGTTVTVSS VL: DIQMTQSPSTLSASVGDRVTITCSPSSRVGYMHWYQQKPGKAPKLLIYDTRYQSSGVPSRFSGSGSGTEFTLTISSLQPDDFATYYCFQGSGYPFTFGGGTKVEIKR" readout_type=koff observed="0.000535 s⁻¹"
binder="P12f4 IgG (antibody, V domains shown) VH: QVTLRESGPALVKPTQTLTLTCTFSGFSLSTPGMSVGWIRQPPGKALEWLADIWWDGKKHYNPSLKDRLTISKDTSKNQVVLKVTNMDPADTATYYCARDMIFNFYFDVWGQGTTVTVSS VL: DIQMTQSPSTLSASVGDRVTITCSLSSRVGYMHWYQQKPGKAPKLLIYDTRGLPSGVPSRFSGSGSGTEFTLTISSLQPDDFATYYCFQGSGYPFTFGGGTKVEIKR" readout_type=koff observed="0.000229 s⁻¹"
binder="A13c4 IgG (antibody, V domains shown) VH: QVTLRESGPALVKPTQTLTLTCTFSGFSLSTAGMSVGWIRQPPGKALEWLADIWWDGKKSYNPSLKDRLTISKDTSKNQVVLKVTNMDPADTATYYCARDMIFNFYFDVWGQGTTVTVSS VL: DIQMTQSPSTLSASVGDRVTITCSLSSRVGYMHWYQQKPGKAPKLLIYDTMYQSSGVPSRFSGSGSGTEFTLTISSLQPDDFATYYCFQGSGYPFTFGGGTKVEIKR" readout_type=koff observed="0.000272 s⁻¹"
binder="A1e9 IgG (antibody, V domains shown, also called Ale9) VH: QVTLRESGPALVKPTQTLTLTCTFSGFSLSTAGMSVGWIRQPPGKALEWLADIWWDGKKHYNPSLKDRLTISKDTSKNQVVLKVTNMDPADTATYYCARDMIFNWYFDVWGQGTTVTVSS VL: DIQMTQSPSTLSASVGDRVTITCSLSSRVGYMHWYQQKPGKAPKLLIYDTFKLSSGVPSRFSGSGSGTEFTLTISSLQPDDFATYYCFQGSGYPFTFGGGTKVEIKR" readout_type=koff observed="0.000584 s⁻¹"
binder="P12f2 IgG (antibody, V domains shown) VH: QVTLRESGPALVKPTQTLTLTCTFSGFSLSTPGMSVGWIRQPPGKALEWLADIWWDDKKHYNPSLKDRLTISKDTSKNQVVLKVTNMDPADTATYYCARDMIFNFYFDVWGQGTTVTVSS VL: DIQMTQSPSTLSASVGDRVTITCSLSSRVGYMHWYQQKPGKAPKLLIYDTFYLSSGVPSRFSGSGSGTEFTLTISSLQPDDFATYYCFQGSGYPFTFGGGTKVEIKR" readout_type=koff observed="0.000178 s⁻¹"
binder="A12a6 IgG (antibody, V domains shown) VH: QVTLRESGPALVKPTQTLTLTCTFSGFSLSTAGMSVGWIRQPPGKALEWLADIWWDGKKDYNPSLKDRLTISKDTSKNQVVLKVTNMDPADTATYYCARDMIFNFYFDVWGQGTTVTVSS VL: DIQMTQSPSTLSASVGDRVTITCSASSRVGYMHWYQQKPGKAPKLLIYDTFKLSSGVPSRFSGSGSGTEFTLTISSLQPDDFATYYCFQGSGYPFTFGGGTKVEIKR" readout_type=koff observed="0.000291 s⁻¹"
